STUDY_TARGET: taxol-stabilized microtubules polymerized from porcine brain tubulin, P02550
Sequence (P02550 whole entry, chain 1 of 2): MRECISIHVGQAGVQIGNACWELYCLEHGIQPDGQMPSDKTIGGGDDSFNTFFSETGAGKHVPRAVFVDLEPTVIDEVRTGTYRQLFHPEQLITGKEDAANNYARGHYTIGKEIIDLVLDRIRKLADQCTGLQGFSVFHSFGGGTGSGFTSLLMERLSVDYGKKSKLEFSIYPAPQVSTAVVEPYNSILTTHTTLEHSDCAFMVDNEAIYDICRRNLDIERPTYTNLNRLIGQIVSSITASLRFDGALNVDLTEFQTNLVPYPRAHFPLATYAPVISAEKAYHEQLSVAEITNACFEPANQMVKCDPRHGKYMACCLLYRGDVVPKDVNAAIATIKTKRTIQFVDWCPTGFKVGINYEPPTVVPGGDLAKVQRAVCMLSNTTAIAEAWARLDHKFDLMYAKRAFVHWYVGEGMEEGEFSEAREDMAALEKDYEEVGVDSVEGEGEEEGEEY
Sequence (chain, as listed by the source, chain 2 of 2): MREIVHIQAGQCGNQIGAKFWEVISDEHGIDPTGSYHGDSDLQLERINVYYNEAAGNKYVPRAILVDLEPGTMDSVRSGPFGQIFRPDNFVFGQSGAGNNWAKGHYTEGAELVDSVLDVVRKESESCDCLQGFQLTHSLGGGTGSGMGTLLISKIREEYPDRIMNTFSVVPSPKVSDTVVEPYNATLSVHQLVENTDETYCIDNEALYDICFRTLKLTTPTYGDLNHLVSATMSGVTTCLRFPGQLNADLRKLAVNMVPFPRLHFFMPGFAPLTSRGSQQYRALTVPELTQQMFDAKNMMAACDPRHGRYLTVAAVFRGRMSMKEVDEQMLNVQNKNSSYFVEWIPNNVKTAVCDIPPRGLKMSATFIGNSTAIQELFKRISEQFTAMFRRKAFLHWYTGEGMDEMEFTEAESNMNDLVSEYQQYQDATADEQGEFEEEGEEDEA
MEASUREMENT_PROTOCOL: MT-binding assay (cosedimentation)
CONDITION_LABEL: chain shown with the change; 5 μM CG2 mutant, […] taxol–MTs; parent: est. 1.0; read off a plot
MEASUREMENT_NAME: ratio to parent

Worked cases, ratio to parent given:
CLIP-170 CG2 fragment (206-288), P30622 K252A (protein) KKGERELKIGDRVLVGGTKAGVVRFLGETDFAKGEWCGVELDEPLGANDGAVAGTRYFQCQPKYGLFAPVHKVTKIGFPSTTP :: 0.28
CLIP-170 CG2 fragment (206-288), P30622 K224A (protein) KKGERELKIGDRVLVGGTAAGVVRFLGETDFAKGEWCGVELDEPLGKNDGAVAGTRYFQCQPKYGLFAPVHKVTKIGFPSTTP :: 0.4
CLIP-170 CG2 fragment (206-288), P30622 K277A (protein) KKGERELKIGDRVLVGGTKAGVVRFLGETDFAKGEWCGVELDEPLGKNDGAVAGTRYFQCQPKYGLFAPVHAVTKIGFPSTTP :: 0.75
CLIP-170 CG2 fragment (206-288), P30622 K238A (protein) KKGERELKIGDRVLVGGTKAGVVRFLGETDFAAGEWCGVELDEPLGKNDGAVAGTRYFQCQPKYGLFAPVHKVTKIGFPSTTP :: 0.97

[a] CLIP-170 CG2 fragment (206-288), P30622 N253A (protein) KKGERELKIGDRVLVGGTKAGVVRFLGETDFAKGEWCGVELDEPLGKADGAVAGTRYFQCQPKYGLFAPVHKVTKIGFPSTTP
[b] CLIP-170 CG2 fragment (206-288), P30622 K252E; N253D (protein) KKGERELKIGDRVLVGGTKAGVVRFLGETDFAKGEWCGVELDEPLGEDDGAVAGTRYFQCQPKYGLFAPVHKVTKIGFPSTTP
Task: Looking only at measured ratio to parent, which entry is lower, a or b ? Reply with the label of the item you choose.
Output: b
